system: Saccharomyces cerevisiae; assay: checkerboard drug interaction (FICI, MICc);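 further: simplified diagonal checkerboard screen pairing antifungals with FPPS inhibitors, FICI calculated under the Loewe additivity model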; assay type: cell-based; settings: S. cerevisiae; FLC:INH combination; fold decrease of inhibitor MIC
Readout type: INH FD (MIC-MICc fold decrease)

Compound: CCCCCCCCCN1CCC[C@H]1C(=O)N[C@@H](CC(=O)OC)C(=O)OC [dmPLA9]
Tested system: Saccharomyces cerevisiae
Reported measurement: 2
--
Compound: CCCCCCCCCCCN1CCC[C@H]1C(=O)N[C@@H](CC(=O)O)C(=O)O [PLA11]
Tested system: Saccharomyces cerevisiae
Reported measurement: 16
--
Compound: CCCCCCCCCCN1CCC[C@H]1C(=O)N[C@@H](CC(=O)OC)C(=O)OC [dmPLA10]
Tested system: Saccharomyces cerevisiae
Reported measurement: -2
--
Compound: CCCCCCCCCN1CCC[C@H]1C(=O)N[C@@H](CC(=O)O)C(=O)O [PLA9]
Tested system: Saccharomyces cerevisiae
Reported measurement: 16
--
Compound: O=P(O)(O)C(O)(Cn1ccnc1)P(=O)(O)O [ZOL, zoledronate]
Tested system: Saccharomyces cerevisiae
Reported measurement: 8

* * *

test system: Candida albicans; experiment: checkerboard drug interaction (FICI, MICc); type: cell-based; conditions: C. albicans; KET:INH combination; fold decrease of inhibitor MIC

Compound: CCCCCCCCCCCN1CCC[C@H]1C(=O)N[C@@H](CC(=O)OC)C(=O)OC
Tested system: Candida albicans
INH FD (MIC-MICc fold decrease): 4
--
Compound: O=P(O)(O)C(O)(Cn1ccnc1)P(=O)(O)O [ZOL, zoledronate]
Tested system: Candida albicans
INH FD (MIC-MICc fold decrease): 8
--
Compound: CCCCCCCCCCN1CCC[C@H]1C(=O)N[C@@H](CC(=O)OC)C(=O)OC
Tested system: Candida albicans
INH FD (MIC-MICc fold decrease): 4
--
Compound: CCCCCCCCCCCCN1CCC[C@H]1C(=O)N[C@H](CC(=O)O)C(=O)O
Tested system: Candida albicans
INH FD (MIC-MICc fold decrease): 8
--
Compound: CCCCCCCCCCCCN1CCC[C@H]1C(=O)N[C@H](CC(=O)OC)C(=O)OC
Tested system: Candida albicans
INH FD (MIC-MICc fold decrease): 32
--
Compound: CCCCCCCCCN1CCC[C@H]1C(=O)N[C@@H](CC(=O)OC)C(=O)OC
Tested system: Candida albicans
INH FD (MIC-MICc fold decrease): 8
--
Compound: CCCCCCCCCN1CCC[C@H]1C(=O)N[C@H](CC(=O)OC)C(=O)OC
Tested system: Candida albicans
INH FD (MIC-MICc fold decrease): 2
--
Compound: CCCCCCCCCCCN1CCC[C@H]1C(=O)N[C@H](CC(=O)O)C(=O)O
Tested system: Candida albicans
INH FD (MIC-MICc fold decrease): 4
--
Compound: CCCCCCCCCN1CCC[C@H]1C(=O)N[C@H](CC(=O)O)C(=O)O
Tested system: Candida albicans
INH FD (MIC-MICc fold decrease): 4
--
Compound: CCCCCCCCCN1CCC[C@H]1C(=O)N[C@@H](CC(=O)O)C(=O)O
Tested system: Candida albicans
INH FD (MIC-MICc fold decrease): 4
--
Compound: CCCCCCCCCCCN1CCC[C@H]1C(=O)N[C@@H](CC(=O)O)C(=O)O
Tested system: Candida albicans
INH FD (MIC-MICc fold decrease): 2
--
Compound: CCCCCCCCCCCCN1CCC[C@H]1C(=O)N[C@@H](CC(=O)OC)C(=O)OC
Tested system: Candida albicans
INH FD (MIC-MICc fold decrease): 8
--
Compound: CCCCCCCCCCN1CCC[C@H]1C(=O)N[C@H](CC(=O)OC)C(=O)OC
Tested system: Candida albicans
INH FD (MIC-MICc fold decrease): 4
--
Compound: CCCCCCCCCCCN1CCC[C@H]1C(=O)N[C@H](CC(=O)OC)C(=O)OC
Tested system: Candida albicans
INH FD (MIC-MICc fold decrease): 16
